biological target: UGT1A6 (Homo sapiens); assay: Inhibition of UGT1A6 activity (glucuronidation of p-nitrophenol) in pooled human liver microsomes
measure: Inhibition of UGT1A6 activity (in words)

- compound: "O=S(=O)([O-])c1ccc(N=Nc2c(O)ccc3cc(S(=O)(=O)[O-])ccc23)cc1.[Na+].[Na+] [Sunset yellow FCF (SY), sunset yellow FCF]"
  obs.value: "no inhibition"
- compound: "CCN(CC)c1ccc2c(-c3ccccc3C(=O)O)c3ccc(=[N+](CC)CC)cc-3oc2c1 [rhodamine, reference compound]"
  obs.value: "did not inhibit"
- compound: "O=C1/C(=C2\\Nc3ccc(S(=O)(=O)[O-])cc3C2=O)Nc2ccc(S(=O)(=O)[O-])cc21.[Na+].[Na+]"
  obs.value: "no inhibition"
- compound: "O=C(O)c1ccccc1-c1c2ccc(=O)cc-2oc2cc(O)ccc12 [Uranine, reference compound]"
  obs.value: "did not inhibit"
- compound: "c1ccc2c(c1)Cc1ccccc1O2"
  obs.value: "did not inhibit"
- compound: "O=C([O-])C1=NN(c2ccc(S(=O)(=O)[O-])cc2)C(=O)C1N=Nc1ccc(S(=O)(=O)[O-])cc1.[Na+].[Na+].[Na+] (stereo not shown)"
  obs.value: "no inhibition"

###

Target: CYP3A4 (Homo sapiens, UniProt P08684)
Construct: pooled human liver microsomes (HLMs), purchased from Gentest; tissue Gentest (Woburn, MA, USA); host or cells: pooled human liver microsomes
Sequence (P08684 whole entry): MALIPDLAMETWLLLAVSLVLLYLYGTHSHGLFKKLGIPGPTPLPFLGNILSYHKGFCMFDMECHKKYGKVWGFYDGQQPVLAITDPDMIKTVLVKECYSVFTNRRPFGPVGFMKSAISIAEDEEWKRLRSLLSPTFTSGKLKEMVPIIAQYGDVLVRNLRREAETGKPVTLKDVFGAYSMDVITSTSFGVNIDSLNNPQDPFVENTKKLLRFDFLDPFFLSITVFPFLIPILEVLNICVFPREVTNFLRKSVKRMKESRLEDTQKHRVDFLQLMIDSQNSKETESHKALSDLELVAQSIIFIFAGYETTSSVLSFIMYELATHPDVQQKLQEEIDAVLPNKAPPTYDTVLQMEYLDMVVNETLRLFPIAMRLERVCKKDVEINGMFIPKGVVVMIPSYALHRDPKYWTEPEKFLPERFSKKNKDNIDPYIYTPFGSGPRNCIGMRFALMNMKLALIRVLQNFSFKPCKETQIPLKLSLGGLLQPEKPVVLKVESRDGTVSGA
Test: Inhibition of CYP3A4 activity in pooled human liver microsomes (7-benzoyloxy-4-(trifluoromethyl)-coumarin substrate)
Assay type: biochemical
Conditions: human, pooled human liver microsomes, probe 7-benzoyloxy-4-(trifluoromethyl)-coumarin
Description: These enzymes were stored at −80°C. Superoxide dismutase (SOD) and catalase are products of Sigma. CYP3A4 is a major enzyme among phase I drug-metabolizing enzymes and reacts with half of all drugs. To determine the influence of CYP3A4 activity by food dyes, the color of dyes influencing the fluorometric measurement over 30 μM dye concentration was measured. This background was subtracted from the measurement of color pigments.
pIC50: −log10 of the molar value.
Below, each entry is listed alongside its reported pIC50.
measure: pIC50

- compound: "O=C(O)c1c(Cl)c(Cl)c(Cl)c(Cl)c1-c1c2cc(Br)c(=O)c(Br)c-2oc2c(Br)c(O)c(Br)cc12"
  measure: "pIC50"
  obs.value: 5.25
- compound: "O=C(O)c1c(Cl)c(Cl)c(Cl)c(Cl)c1-c1c2cc(I)c(=O)c(I)c-2oc2c(I)c(O)c(I)cc12 [Rose Bengal (RB), rose bengal]"
  measure: "pIC50"
  obs.value: 4.67

###

Molecular target: UGT1A6 (Homo sapiens)
Sequence (P19224 27-532): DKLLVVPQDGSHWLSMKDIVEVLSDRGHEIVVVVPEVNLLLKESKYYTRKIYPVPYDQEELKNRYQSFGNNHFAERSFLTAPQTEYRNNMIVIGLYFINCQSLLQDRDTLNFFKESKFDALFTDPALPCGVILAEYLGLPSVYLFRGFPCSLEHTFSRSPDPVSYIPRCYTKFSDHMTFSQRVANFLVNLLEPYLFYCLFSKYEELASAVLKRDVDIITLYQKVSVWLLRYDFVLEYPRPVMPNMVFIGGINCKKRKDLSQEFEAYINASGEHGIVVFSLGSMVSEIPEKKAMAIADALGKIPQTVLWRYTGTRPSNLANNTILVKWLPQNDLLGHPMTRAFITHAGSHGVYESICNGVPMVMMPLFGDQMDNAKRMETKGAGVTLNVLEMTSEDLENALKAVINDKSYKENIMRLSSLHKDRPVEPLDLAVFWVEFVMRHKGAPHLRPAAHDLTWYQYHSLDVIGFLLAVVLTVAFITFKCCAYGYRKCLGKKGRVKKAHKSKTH
Assay: Inhibition of UGT1A6 activity (glucuronidation of p-nitrophenol) in pooled human liver microsomes
Conditions: human, pooled human liver microsomes, probe p-nitrophenol
measure: IC50

- molecule: "O=C1OC2(c3ccccc31)c1cc(I)c(O)c(I)c1Oc1c2cc(I)c(O)c1I [Erythrosine B (ET), erythrosine]"
  target.desc: "UGT1A6 (Homo sapiens)"
  measure: "IC50"
  obs.value: "70 µM"
- molecule: "O=C(O)c1ccccc1-c1c2ccc(=O)cc-2oc2cc(O)ccc12 [Uranine, reference compound]"
  target.desc: "UGT1A6 (Homo sapiens)"
  measure: "IC50"
  obs.value: "> 1000 µM"
- molecule: "O=C(O)c1cc(N=C=S)ccc1-c1c2cc(Br)c(=O)c(Br)c-2oc2c(Br)c(O)c(Br)cc12 [Dye E5ic, Eosin-5-isothiocyanate, reference compound]"
  target.desc: "UGT1A6 (Homo sapiens)"
  measure: "IC50"
  obs.value: "70 µM"
- molecule: "O=C(O)c1c(Cl)c(Cl)c(Cl)c(Cl)c1-c1c2cc(I)c(=O)c(I)c-2oc2c(I)c(O)c(I)cc12 [Rose Bengal (RB), rose bengal]"
  target.desc: "UGT1A6 (Homo sapiens)"
  measure: "IC50"
  obs.value: "15 µM"
